TARGET_SYSTEM: human natriuratic peptide receptor A (NPRA) (Homo sapiens, UniProt P16066)
Sequence (P16066 33-1061): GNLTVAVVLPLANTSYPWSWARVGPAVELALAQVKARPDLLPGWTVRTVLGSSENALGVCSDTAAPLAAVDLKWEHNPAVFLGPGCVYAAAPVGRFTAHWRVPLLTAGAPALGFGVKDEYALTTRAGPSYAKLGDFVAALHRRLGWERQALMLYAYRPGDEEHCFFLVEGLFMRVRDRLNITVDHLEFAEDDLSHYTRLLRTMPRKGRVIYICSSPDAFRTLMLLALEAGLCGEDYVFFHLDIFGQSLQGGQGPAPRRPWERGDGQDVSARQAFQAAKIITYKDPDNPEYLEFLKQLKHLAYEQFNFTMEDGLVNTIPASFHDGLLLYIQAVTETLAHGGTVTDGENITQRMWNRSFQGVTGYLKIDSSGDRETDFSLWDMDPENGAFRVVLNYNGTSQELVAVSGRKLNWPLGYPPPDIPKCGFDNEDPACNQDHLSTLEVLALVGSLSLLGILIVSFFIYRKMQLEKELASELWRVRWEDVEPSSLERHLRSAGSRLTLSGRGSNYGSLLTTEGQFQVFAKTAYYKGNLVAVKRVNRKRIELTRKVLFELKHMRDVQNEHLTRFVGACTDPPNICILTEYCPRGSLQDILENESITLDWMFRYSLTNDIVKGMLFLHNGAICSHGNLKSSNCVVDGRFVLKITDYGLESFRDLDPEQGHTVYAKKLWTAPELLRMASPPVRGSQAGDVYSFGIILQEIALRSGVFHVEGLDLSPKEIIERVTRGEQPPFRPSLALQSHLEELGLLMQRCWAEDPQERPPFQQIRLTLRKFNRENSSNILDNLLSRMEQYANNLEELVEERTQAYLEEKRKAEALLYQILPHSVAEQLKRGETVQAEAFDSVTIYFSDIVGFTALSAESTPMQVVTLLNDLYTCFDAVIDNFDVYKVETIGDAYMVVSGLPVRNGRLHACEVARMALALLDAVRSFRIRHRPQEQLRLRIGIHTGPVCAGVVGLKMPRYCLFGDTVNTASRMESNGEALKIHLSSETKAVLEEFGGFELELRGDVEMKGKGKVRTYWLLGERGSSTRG
PROCEDURE_DETAILS: Competitive inhibition binding assay, [125I]-ANP, membrane homogenates from HEK-hNPRA cells
RUN_CONDITIONS: inhibition of [125I]-ANP binding to HEK-hNPRA membranes; construct concentration not stated
Description: A cDNA clone that encodes for human natriuratic peptide receptor A (NPRA) was purchased from Bio S&T Inc. (Montreal, Quebec). The cDNA clone was inserted into the mammalian expression vector pcDNA3.1 (Invitrogen) and transfected into HEK-293 cells. […] A competitive inhibition binding assay was performed using crude membrane homogenates prepared from HEK-hNPRA cells. […] Bound radioactivity was determined using a gamma counter. […] Data were analyzed using GraphPad Prism® curve-fitting software.
Bridge positions count the residues as written; N and C are the ends. Square brackets hold non-standard residues; d marks the D form. Peptide text beside a SMILES is read from it. * marks the point of attachment. X1 = N=C(N)NCCC[C@H]1C(=O)N[C@@H](C(N)=O)CN1*; dNle = CCCC[C@@H](N)C(=O)O; Heptanoyl = CCCCCCC(=O)*; Nle = CCCC[C@H](N)C(=O)O; Dab = NCC[C@H](N)C(=O)O; Dap = NC[C@H](N)C(=O)O
Each entry below lists one item and its recorded Percent Inhibition value.

- COMPOUND: "CCCCCCC(=O)NC[C@@H]1NC(=O)CC[C@@H](C(=O)N[C@@H](Cc2ccc(O)cc2)C(=O)N2C[C@H](C(N)=O)NC(=O)[C@@H]2CCCNC(=N)N)NC(=O)[C@H](CO)NC(=O)[C@H]([C@@H](C)CC)NC(=O)[C@H](CCCNC(=N)N)NC(=O)[C@H](CC(=O)O)NC(=O)[C@@H](CCCC)NC(=O)[C@H](CCCNC(=N)N)NC(=O)CNC(=O)[C@@H](C)NC(=O)[C@H](Cc2ccccc2)NC(=O)[C@H](Cc2c[nH]cn2)NC1=O [3-76] ([Dap](Heptanoyl)HF[dA]GR[dNle]DRISEY-X1; lactam N-12)"
  TARGET_SYSTEM: "human natriuratic peptide receptor A (NPRA) (Homo sapiens, UniProt P16066)"
  UNITS: "%"
  Percent Inhibition: 93
- COMPOUND: "CCCCCCC(=O)N[C@H]1CC(=O)NCC[C@@H](C(=O)N[C@@H](Cc2ccc(O)cc2)C(=O)N2C[C@H](C(N)=O)NC(=O)[C@@H]2CCCNC(=N)N)NC(=O)[C@H](CO)NC(=O)[C@H]([C@@H](C)CC)NC(=O)[C@H](CCCNC(=N)N)NC(=O)[C@H](CC(=O)O)NC(=O)[C@H](CCCC)NC(=O)[C@H](CCCNC(=N)N)NC(=O)CNC(=O)CNC(=O)[C@H](Cc2ccccc2)NC(=O)[C@H](Cc2c[nH]cn2)NC1=O [4-137] (Heptanoyl-DHFGGR[Nle]DRIS[Dab]Y-X1; lactam 1-12)"
  TARGET_SYSTEM: "human natriuratic peptide receptor A (NPRA) (Homo sapiens, UniProt P16066)"
  UNITS: "%"
  Percent Inhibition: 78
- COMPOUND: "CCCCCCC(=O)NCC[C@@H]1NC(=O)CC[C@@H](C(=O)N[C@@H](Cc2ccc(O)cc2)C(=O)N2C[C@H](C(N)=O)NC(=O)[C@@H]2CCCNC(=N)N)NC(=O)[C@H](CO)NC(=O)[C@H]([C@@H](C)CC)NC(=O)[C@H](CCCNC(=N)N)NC(=O)[C@H](CC(=O)O)NC(=O)[C@@H](CCCC)NC(=O)[C@H](CCCNC(=N)N)NC(=O)CNC(=O)[C@@H](C)NC(=O)[C@H](Cc2ccccc2)NC(=O)[C@H](Cc2c[nH]cn2)NC1=O [3-75] ([Dab](Heptanoyl)HF[dA]GR[dNle]DRISEY-X1; lactam N-12)"
  TARGET_SYSTEM: "human natriuratic peptide receptor A (NPRA) (Homo sapiens, UniProt P16066)"
  UNITS: "%"
  Percent Inhibition: 98
